target: Recombinant STAT3 protein (STAT3(G127-I722)) (Homo sapiens); construct: STAT3(G127-I722); assay: STAT3 Fluorescence Polarization (FP) Assay; conditions: STAT3(G127-I722) 25 nM, probe 5-FAM-GpYLPQTV-NH2 2 nM, 45-minute incubation
Value Type: IC50

Examples with answers:
[
  {
    "Compound": "O=C(N[C@H]1C[C@@H]2C[C@@H]2C[C@H]2CC[C@@H](C(=O)N3CC(N4CCS(=O)(=O)CC4)C3)N2C1=O)c1cc2cc(C(F)P(=O)(O)O)ccc2s1 (stereo partly drawn) [Example 301]",
    "IC50": "0.1 to 1 µM"
  },
  {
    "Compound": "O=C(N[C@H]1C[C@@H]2C[C@@H]2C[C@H]2CC[C@@H](C(=O)N[C@@H]3CCN(c4cn[nH]c4)C3)N2C1=O)c1cc2cc(C(F)(F)P(=O)(O)O)ccc2s1 [Compound 120]",
    "IC50": "0.1 to 1 µM"
  }
]

q: Find the recorded IC50 belonging to O=C(N[C@H]1C[C@@H]2C[C@@H]2C[C@H]2CC[C@@H](C(=O)N3CC(Cc4cc(F)ccc4F)C3)N2C1=O)c1cc2cc(CP(=O)(O)O)ccc2s1 [Example 378] and report it.
a: 1 to 10 µM

----------
molecular target: Recombinant STAT3 protein (STAT3(G127-I722)) (Homo sapiens, UniProt P40763); construct: STAT3(G127-I722); assay: STAT3 Fluorescence Polarization (FP) Assay; conditions: STAT3(G127-I722) 25 nM, probe 5-FAM-GpYLPQTV-NH2 2 nM, 45-minute incubation
Sequence (P40763 127-722, species assumed): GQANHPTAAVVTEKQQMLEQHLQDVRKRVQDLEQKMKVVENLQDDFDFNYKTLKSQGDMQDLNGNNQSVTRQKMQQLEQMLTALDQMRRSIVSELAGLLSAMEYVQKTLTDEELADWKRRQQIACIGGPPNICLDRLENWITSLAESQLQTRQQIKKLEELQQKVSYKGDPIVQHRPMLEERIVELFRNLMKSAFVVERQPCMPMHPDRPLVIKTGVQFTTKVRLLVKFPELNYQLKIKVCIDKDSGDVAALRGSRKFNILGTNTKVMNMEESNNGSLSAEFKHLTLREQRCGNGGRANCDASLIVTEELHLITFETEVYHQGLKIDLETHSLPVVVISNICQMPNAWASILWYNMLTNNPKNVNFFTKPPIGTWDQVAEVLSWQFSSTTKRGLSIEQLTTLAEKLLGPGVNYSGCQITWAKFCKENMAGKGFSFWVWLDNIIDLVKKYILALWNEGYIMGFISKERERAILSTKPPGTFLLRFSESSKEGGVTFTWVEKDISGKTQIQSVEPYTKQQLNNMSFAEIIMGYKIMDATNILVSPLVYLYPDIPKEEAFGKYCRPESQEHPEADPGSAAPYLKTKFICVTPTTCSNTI
pIC50: −log10 of the molar value.
Form field: pIC50 (one value per entry).

Examples with answers:
[
  {
    "Compound": "CC(=O)N1CCC2C1CN2C(=O)[C@@H]1CC[C@@H]2C[C@H]3C[C@H]3C[C@H](NC(=O)c3cc4cc(CP(=O)(O)O)ccc4s3)C(=O)N21 (stereo partly drawn) [Example 271]",
    "Readout Value": "5.00 to 6.00"
  },
  {
    "Compound": "O=C(N[C@H]1C[C@@H]2C[C@@H]2C[C@H]2CC[C@@H](C(=O)N3CC(C(O)c4ccccc4)C3)N2C1=O)c1cc2cc(CP(=O)(O)O)ccc2s1 (stereo partly drawn) [Example 365]",
    "Readout Value": "5.00 to 6.00"
  }
]

q: Find the recorded pIC50 belonging to O=C(N[C@H]1C[C@@H]2C[C@@H]2C[C@H]2CC[C@@H](C(=O)N3CC4(CN(C(=O)Cc5ccccc5)C4)C3)N2C1=O)c1cc2cc(C(F)(F)P(=O)(O)O)ccc2s1 [Compound 41] and report it.
a: > 7.00

----------
Form field: IC50 (one value per entry).
target: Recombinant STAT3 protein (STAT3(G127-I722)) (Homo sapiens, UniProt P40763); construct: STAT3(G127-I722); experiment: STAT3 Fluorescence Polarization (FP) Assay; settings: STAT3(G127-I722) 25 nM, probe 5-FAM-GpYLPQTV-NH2 2 nM, 45-minute incubation

[
  {
    "Compound": "O=C(N[C@H]1C[C@H]2C[C@H]2C[C@H]2CC[C@@H](C(=O)NC3CN(C(=O)CCC(F)(F)F)C3)N2C1=O)c1cc2cc(C(F)(F)P(=O)(O)O)ccc2s1",
    "IC50": "< 100 nM"
  }
]

q: Find the recorded IC50 belonging to CC(=O)N1CCC2(C1)CN(C(=O)[C@@H]1CC[C@@H]3C[C@H]4C[C@H]4C[C@H](NC(=O)c4cc5cc(C(F)(F)P(=O)(O)O)ccc5s4)C(=O)N31)C2 and report it.
a: 100 to 1000 nM

q: Find the recorded IC50 belonging to COc1ccncc1C1CN(C(=O)[C@@H]2CC[C@@H]3C[C@H]4C[C@H]4C[C@H](NC(=O)c4cc5cc(CP(=O)(O)O)ccc5s4)C(=O)N32)C1 and report it.
a: < 100 nM

q: Find the recorded IC50 belonging to CS(=N)(=O)CC1CN(C(=O)[C@@H]2CC[C@@H]3C[C@@H]4C[C@@H]4C[C@H](NC(=O)c4cc5cc(C(F)(F)P(=O)(O)O)ccc5s4)C(=O)N32)C1 (some centres unmarked) and report it.
a: < 100 nM

q: Find the recorded IC50 belonging to Cn1cnnc1C1CN(C(=O)[C@@H]2CC[C@@H]3C[C@@H]4C[C@@H]4C[C@H](NC(=O)c4cc5cc(C(F)(F)P(=O)(O)O)ccc5s4)C(=O)N32)C1 and report it.
a: < 100 nM
